Target: T1, human CD112R antigen protein huCD112R-His (Acro Biosysterm, PVG-H52H4) (human, UniProt Q6DKI7 41-171)
T1 construct: purchased; also called human antigen protein; not shown: His tag
T1 sequence (looked up): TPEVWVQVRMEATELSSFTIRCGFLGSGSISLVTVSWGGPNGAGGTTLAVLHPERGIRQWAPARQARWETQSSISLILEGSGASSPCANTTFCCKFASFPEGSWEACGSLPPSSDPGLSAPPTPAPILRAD
Test: ELISA, huCD112R-His coated on plate
Listed binders paired with reported EC50
Give a bare numeral; the unit pM is implied.

[
  {
    "Binder": "C39 (antibody, human IgG1, kappa, V domains shown) VH: QAYLQQSGAELVRPGASVKMSCKASGYTFTSYNIHWVKQTPRQGLEWIGAIYPGNADISYNQKFRDKATLTVDKSSSTAYMQLSSLTSEDSAVYFCAKPLRIYAMDCWGQGTSVTVSS VL: DIVMTQSQKFMSTSVGDRVSVTCKASQNVGTNVAWYQQKPGQSPKALIYSASYRYSGVPDRFTGSGSGTDFTLTISNVQSEDLADYFCQQYNSRPLTFGGGTKLEIKR",
    "Output unit": "pM",
    "Recorded result": 691
  },
  {
    "Binder": "C117 (antibody, human IgG1, kappa, V domains shown) VH: QVQLQQSGAELARPGASVKMSCKASGYTFTDYWMQWVKQRPGQGLEWIGAIFPGNGETRDTQKFKGRATLTADRSSSTAYIQLSSLTSEDSAVYYCATFNNYLDYWGQGTTLTVAS VL: QIVLTQSPAIMSASPGEKVTMTCSASSSVSYMHWYQQKSGASPKRWIYDTSKLTSGVPARFSGSGSGTSYSLTISNMEAEDAATYYCQQWISNPYTFGGGTKLEIKR",
    "Output unit": "pM",
    "Recorded result": 41
  },
  {
    "Binder": "C14 (antibody, human IgG1, kappa, V domains shown) VH: QVQLQQPGAELVRPGTSVKLSCKASGNTFTSYWMHWVKQRPGQGHEWIGVIDASDSNTKYNQKFKGKATLTVDTSSSTAYMQLSSLTSEDSAVYYCARYYSGSSYGLDYWGQGTTLTVSS VL: DIQMTQTASSLSASLGDRVTISCRASQDISNYLNWYQQKPDGTVKLLIYYTSRLHSGVPSRFSGSGSGTDFSLTITHLEQEDIASYFCQQGNMFPPTFGGGTKLEIKR",
    "Output unit": "pM",
    "Recorded result": 52
  },
  {
    "Binder": "C59 (antibody, human IgG1, kappa, V domains shown) VH: EVQLVESGGGLVKPGGSLKLSCAASGFTFSGYALSWVRQTPEKRLEWVATIRDGGSYTYYSDNEKGRFTISRDNAKNNLYLQMSHLKSEDTAMYYCTRDQVNRGWFTYWGQGTLVTVSA VL: QVILTQSPAIMSASLGERVTMTCSASSSVSSSYFHWFQQKPGSSPKLWIYSTSNLASGVPPRFSGSGSGTSYSLTISSMEAEDAATYYCHQHHRSPLTFGAGTKLELKR",
    "Output unit": "pM",
    "Recorded result": 44
  }
]

Exercise: Suppose we examine the binder C43 (antibody, human IgG1, kappa, V domains shown) VH: QVQLQQPGAELVRPGTSVKLSCKASGNTFTTYWMHWVKQRPGQGHEWIGVIDASDSNTKYNQKFKGKATLTVDTSSSTAYMQLSSLTSEDSAVYYCARYYSGSSYGLDYWGQGTTLTVSS VL: DIQMTQTASSLSASLGDRVTISCRASQDISNYLNWYQQKPDGTVKLLIYYTSRLHSGVPSRFSGSGSGTDYSLTITNLEQEDIASYFCQQGNMFPPTFGGGTKLEIKR ; what EC50 value has been reported?
Key: 51
